- targetUnderTest: CB1 receptor (UniProt P20272)
- Construct: other: compound at 10^−7 M; radioligand [3H]-CP55940; other: compound at 10^−8 M
- protocol: In-vitro determination of affinity to CB1/CB2-receptors (radioligand [3H]-CP55940 binding)
- conditionParameters: compound at 10^−7 M
Counter-ions that a name gives are not always drawn.
property: Inhibition [%], 10^−7 M (%)
Write the value in % as a bare number.

Consider the compound O=C(NC1CCCCCC1)C1=NN(c2ccc(Cl)cc2Cl)C(c2ccc(Br)cc2)C1 (stereo not shown) [Example 130] . State its measured Inhibition [%], 10^−7 M.
67.7

Consider the compound COc1ccc(C2CC(C(=O)NN3CCc4ccccc43)=NN2c2ccc(Cl)cc2Cl)cc1.Cl (stereo not shown) [Example 112] . State its measured Inhibition [%], 10^−7 M.
61.8

Consider the compound Cl.O=C(NN1CC2CCCC2C1)C1=NN(c2ccc(Cl)cc2Cl)C(c2ccc(F)cc2)C1 (stereo not shown) [Example 91A] . State its measured Inhibition [%], 10^−7 M.
75.3

Consider the compound CC1Cc2ccccc2N1NC(=O)C1=NN(c2ccc(Cl)cc2Cl)C(c2ccc(Cl)cc2)C1 (stereo not shown) [Example 27] . State its measured Inhibition [%], 10^−7 M.
50.7

Consider the compound COC[C@H]1CCCN1NC(=O)C1=NN(c2ccc(Cl)cc2Cl)C(c2ccc(Cl)cc2)C1 (stereo partly shown) [Example 13] . State its measured Inhibition [%], 10^−7 M.
31.8

Consider the compound O=C(NCC1CCCCC1)C1=NN(c2ccc(Cl)cc2Cl)C(c2ccc(Cl)cc2)C1 (stereo not shown) [Example 32] . State its measured Inhibition [%], 10^−7 M.
52.7

Consider the compound COc1ccc(C2CC(C(=O)NN3CCCCCC3)=NN2c2ccc(Cl)cc2Cl)cc1 (stereo not shown) [Example 114A] . State its measured Inhibition [%], 10^−7 M.
79.3

Consider the compound CCOC(=O)C1=NN(c2ccc(Cl)cc2Cl)C(c2ccc(Cl)cc2)C1 (stereo not shown) [Example 120] . State its measured Inhibition [%], 10^−7 M.
7.1

Consider the compound Cl.O=C(NN1CCc2ccccc21)C1=NN(c2ccc(Cl)cc2Cl)[C@H](c2ccc(Cl)cc2)C1 [Example 182] . State its measured Inhibition [%], 10^−7 M.
31.7

Consider the compound COc1ccc(C2CC(C(=O)NN3CCCCCCC3)=NN2c2ccc(Cl)cc2Cl)cc1 (stereo not shown) [Example 148] . State its measured Inhibition [%], 10^−7 M.
80.3

Consider the compound COc1ccc(C2CC(C(=O)NN3CC4CCCC4C3)=NN2c2ccc(Cl)cc2Cl)cc1.Cl (stereo not shown) [Example 109A] . State its measured Inhibition [%], 10^−7 M.
74.2

Consider the compound Cl.O=C(NN1CCCCCCC1)C1=NN(c2ccc(Cl)cc2Cl)[C@H](c2ccc(Cl)cc2)C1 [Example 177] . State its measured Inhibition [%], 10^−7 M.
22.2

Consider the compound COc1ccc(C2CC(C(=O)O)=NN2c2ccc(Cl)cc2Cl)cc1 (stereo not shown) [Example 127] . State its measured Inhibition [%], 10^−7 M.
7.8

Consider the compound COc1ccc(C2CC(C(=O)NN3CCCCCC3)=NN2c2ccc(Cl)cc2Cl)cc1.Cl (stereo not shown) [Example 114] . State its measured Inhibition [%], 10^−7 M.
68.7

Consider the compound O=C(NN1CC2CCCC2C1)C1=NN(c2ccc(Cl)cc2Cl)[C@H](c2ccc(Cl)cc2)C1 (stereo partly shown) [Example 184, hydrochloride] . State its measured Inhibition [%], 10^−7 M.
24.8

Consider the compound O=C(NC1CCCCC1)C1=NN(c2ccc(Cl)cc2Cl)C(c2ccc(Cl)cc2)C1 (stereo not shown) [Example 41] . State its measured Inhibition [%], 10^−7 M.
3.4

Consider the compound O=C(NN1CCCCC1)C1=NN(c2ccc(Cl)cc2Cl)C(c2ccc(Br)cc2)C1 (stereo not shown) [Example 60A] . State its measured Inhibition [%], 10^−7 M.
65.8

Consider the compound Cl.O=C(NN1CCc2ccccc21)C1=NN(c2ccc(Cl)cc2Cl)C(c2ccc(F)cc2)C1 (stereo not shown) [Example 179] . State its measured Inhibition [%], 10^−7 M.
33.9

Consider the compound O=C(N[C@H]1CCCC[C@@H]1OCc1ccccc1)C1=NN(c2ccc(Cl)cc2Cl)C(c2ccc(Cl)cc2)C1 (stereo partly shown) [Example 151] . State its measured Inhibition [%], 10^−7 M.
82.3

Consider the compound O=C(NCC1CCCCCC1)C1=NN(c2ccc(Cl)cc2Cl)C(c2ccc(Cl)cc2)C1 (stereo not shown) [Example 191] . State its measured Inhibition [%], 10^−7 M.
67.4

Consider the compound COc1ccc(C2CC(C(=O)NC3CCCCCC3)=NN2c2ccc(Cl)cc2Cl)cc1 (stereo not shown) [Example 132] . State its measured Inhibition [%], 10^−7 M.
37.8

Consider the compound O=C(N[C@@H]1CCCC[C@H]1OCc1ccccc1)C1=NN(c2ccc(Cl)cc2Cl)C(c2ccc(Cl)cc2)C1 (stereo partly shown) [Example 178] . State its measured Inhibition [%], 10^−7 M.
58
